Experiment: Mean residence time in rabbit at 105 mg/kg, ig by HPLC analysis
Type: ADME, organism-based, Oryctolagus cuniculus
Set-up: dose 105 mg/kg, route intragastric
Settings: in vivo, po
property-label: MRT
Record the result as a number with its unit.

CSc1nc2[nH]nc(N)c(=O)n2n1 | 4.14 h

Moving on to the next compound.
Read the entry "CSc1nc2[n-]nc([N+](=O)[O-])c(=O)n2n1.O.O.[Na+]" and write its reported MRT.
2.3 h

----------
Experiment: Total AUC in rabbit at 105 mg/kg, ig up to 24 hrs by HPLC analysis
Type: ADME, organism-based, Oryctolagus cuniculus
Set-up: time AUCmax, dose 105 mg/kg, route intragastric
Conditions: in vivo, po
// reported AUC at 24 h per item
State just the number; it will be interpreted in ng·h/mL.

CSc1nc2[nH]nc(N)c(=O)n2n1 | 690

Kindly consider the entry below.
Annotate the compound CSc1nc2[n-]nc([N+](=O)[O-])c(=O)n2n1.O.O.[Na+] [TRIAZAVIRINE] with its measured AUC at 24 h.
3100

----------
Consider the following compounds and their measured CL/F readings.
Assay: Total clearance in rabbit at 105 mg/kg, ig up to 24 hrs by HPLC analysis
Format: ADME, organism-based, Oryctolagus cuniculus
Design: dose 105 mg/kg, route intragastric
Details: in vivo, po
A bare number is not enough; add the unit after it.

CSc1nc2[nH]nc(N)c(=O)n2n1 | 740 mL/min/kg

Please report the measured CL/F for "CSc1nc2[n-]nc([N+](=O)[O-])c(=O)n2n1.O.O.[Na+]"
617 mL/min/kg

----------
Experiment: Toxicity against ip dosed rabbit
Format: organism-based, Oryctolagus cuniculus
Conditions: in vivo
property-label: LD50 (mg/kg)
The answer is to be given in mg/kg; state only the numeric part.

Look up and state reported LD50 for CSc1nc2[n-]nc([N+](=O)[O-])c(=O)n2n1.O.O.[Na+] [TRIAZAVIRINE]
1400

----------
Measured half-life, listed per entry.
Test: Apparent elimination half life in rabbit at 105 mg/kg, ig by HPLC analysis
Type: ADME, organism-based, Oryctolagus cuniculus
Design: dose 105 mg/kg, route intragastric
Conditions: in vivo, po, read-out: beta t1/2 (converted)
// return numeric value only (unit: h, not printed)

CSc1nc2[nH]nc(N)c(=O)n2n1 | 0.97

Consider the record given below.
Indicate the recorded half-life value for this compound: "CSc1nc2[n-]nc([N+](=O)[O-])c(=O)n2n1.O.O.[Na+]"
1.1

----------
Assay: Cytotoxicity against MDCK cells after 48 hrs by MTT assay
Assay type: cell-based, Canis lupus familiaris
Settings: dog
property-label: CC50 at 48 h

Give CC50 at 48 h for "CSc1nc2[n-]nc([N+](=O)[O-])c(=O)n2n1.O.O.[Na+]"
> 8 mM
